I'd be grateful if you could share measured growth for these entries.
- Tested on: EKVX NSCLC
- experiment notes: NCI-60 one-dose screen, 48 h (100 = growth as untreated, 0 = no growth, -100 = all killed)
- condition set: 10 µM unless noted
About 83,000 compounds went through this panel and 20% of them were active in at least one assay; those are over-represented in the sample as a whole.
Give bare numbers, in %.

Use these answered entries as a reference point.
[
  {
    "compound": "COc1cccc(Nc2ccnc3[nH]c4ccc([N+](=O)[O-])cc4c23)c1",
    "system under test": "EKVX NSCLC",
    "readout units": "%",
    "growth": 31.6
  },
  {
    "compound": "CCC(C)Nc1ccc(NC(C)CC)cc1 (stereo not given)",
    "system under test": "EKVX NSCLC",
    "readout units": "%",
    "growth": 86
  },
  {
    "compound": "O=C(N/N=C/c1ccc(O)cc1O)c1ccc(Nc2ccnc(C(F)(F)F)c2)cc1",
    "system under test": "EKVX NSCLC",
    "readout units": "%",
    "growth": 41.4
  }
]

For the 4 compounds below, give their growth values.
1. O=P(O)(O)OCC1OC(n2cnc3c(NCc4ccccc4)ncnc32)C(O)C1O (stereo not given)
2. COc1ccc(C2C(C#N)=C(N)Oc3c2sc2c(Br)cccc32)cc1 (stereo not given)
3. Cc1ccccc1CNc1c2ccccc2nc2ccccc12
4. COc1ccc2[nH]cc(-c3nc(-c4cn(C)c5ccncc45)cs3)c2c1

Result ::
24.7
46.2
38.4
-14.1
